MEASUREMENT_LABEL: melting point

# MOLECULE, melting point
data = [
    ("NC(=O)c1cccc(N/C(=C2\\C(=O)Nc3ccccc32)c2ccccc2)c1 [Example 10]", "258 to 263 °C"),
    ("CCNC(=O)Nc1ccc(N/C(=C2\\C(=O)Nc3ccccc32)c2ccccc2)cc1 [Example 45]", "264 to 265 °C"),
]

Data request, read-out melting point, for O=C1Nc2ccc([N+](=O)[O-])cc2/C1=C(/Nc1ccc(CN2CCSCC2)cc1)c1ccccc1 [Example 229]
276 to 277 °C

---

MEASUREMENT_LABEL: melting point

Data request, read-out melting point, for CN(C(=O)CN1CCNCC1)c1ccc(N/C(=C2\C(=O)Nc3ccccc32)c2ccccc2)cc1.Cl.Cl
255 to 258 °C (dec.)

Data request, read-out melting point, for CC(=O)N(CCCN(C)C)c1ccc(N/C(=C2\C(=O)Nc3ccccc32)c2ccccc2)cc1
227 °C

Data request, read-out melting point, for C[C@@H](NC(=O)OC(C)(C)C)c1ccc(N/C(=C2\C(=O)Nc3ccc([N+](=O)[O-])cc32)c2ccccc2)cc1
247 to 249 °C

Data request, read-out melting point, for Cl.Cl.O=C1Nc2ccc([N+](=O)[O-])cc2/C1=C(/Nc1ccc(CN2CCNCC2)cc1)c1ccccc1
> 370 °C

Data request, read-out melting point, for CCOC(=O)C1CCN(CCc2ccc(N/C(=C3\C(=O)Nc4ccc([N+](=O)[O-])cc43)c3ccccc3)cc2)CC1
208 to 213 °C

Every entry's value here was drawn from patent US6855710B2.
